Assay protocol: Clearance in fasted Sprague-Dawley rat at 1.62 mg/kg, iv and 3.04 mg/kg, po by HTLC-MS/MS analysis
Assay type: ADME, organism-based
Condition info: in vivo
Endpoint name: clearance (L/h/kg)
Unit L/h/kg implied. Number only.

Ask: For the compound shown here, `O=C(O)CCNC(=O)c1ccc(CN(c2ccc(C(F)(F)F)cc2)c2nc(-c3ccc(Cl)cc3)cs2)cc1` , give the reported clearance.
Reply: 0.06

---

Catalogue of compounds with associated Tmax
Assay protocol: Tmax in fasted Beagle dog at 0.25 mg/kg, iv and 0.5 mg/kg, po
Assay type: ADME, organism-based, Canis lupus familiaris
Condition info: in vivo
Unit h implied. Number only.

Here's what some known entries look like.
- O=C(O)CCNC(=O)c1ccc(CN(c2ccc(OC(F)(F)F)cc2)c2nc(-c3ccc(C(F)(F)F)cc3)cs2)cc1: 1.47
- O=C(O)CCNC(=O)c1ccc(CN(c2ccc(Cl)cc2)c2nc(-c3ccc(OC(F)(F)F)cc3)cs2)cc1: 1.5

Ask: For the compound shown here, `O=C(O)CCNC(=O)c1ccc(CN(c2ccc(Cl)cc2)c2nc(-c3ccc(C(F)(F)F)cc3)cs2)cc1` , give the reported Tmax.
Reply: 1.75

Ask: For the compound shown here, `O=C(O)CCNC(=O)c1ccc(CN(c2ccc3c(c2)CCCC3)c2nc(-c3ccc(Cl)c(Cl)c3)cs2)cc1` , give the reported Tmax.
Reply: 0.85

Ask: For the compound shown here, `O=C(O)CCNC(=O)c1ccc(CN(c2ccc(C(F)(F)F)cc2)c2nc(-c3ccc(Cl)cc3)cs2)cc1` , give the reported Tmax.
Reply: 1.5

---

Assay protocol: Cmax in fasted Sprague-Dawley rat at 1.1 mg/kg, iv and 2.1 mg/kg, po by HTLC-MS/MS analysis
Format: ADME, organism-based
Condition info: in vivo
Endpoint name: Cmax (ng/mL)
Unit ng/mL implied. Number only.

Ask: For the molecule shown here, `O=C(O)CCNC(=O)c1ccc(CN(c2ccc3c(c2)Cc2ccccc2-3)c2nc(-c3ccc(OC(F)(F)F)cc3)cs2)cc1` , give the reported Cmax.
Reply: 471

---

Assay protocol: Binding affinity to glucagon receptor in pig liver membrane by membrane filter assay
Format: cell membranes, Sus scrofa
Catalogue of molecules with associated pIC50
The read-out pIC50 is expressed as -log10 of concentration in moles per litre.

Here's what some known entries look like.
• O=C(O)CCNC(=O)c1ccc(CN(c2ccc(C(F)(F)F)cc2)c2nc(-c3ccc(Cl)cc3)cs2)cc1 = 5.15
• O=C(O)CCNC(=O)c1ccc(CN(c2ccc(Cl)cc2)c2nc(-c3ccc(C(F)(F)F)cc3)cs2)cc1 = 5.40

Ask: For the molecule shown here, `O=C(O)CCNC(=O)c1ccc(CN(c2ccc(Cl)cc2)c2nc(-c3ccc(OC(F)(F)F)cc3)cs2)cc1` , give the reported pIC50.
Reply: 5.24

Ask: For the molecule shown here, `O=C(O)CCNC(=O)c1ccc(CN(c2ccc(OC(F)(F)F)cc2)c2nc(-c3ccc(C(F)(F)F)cc3)cs2)cc1` , give the reported pIC50.
Reply: 5.28

Ask: For the molecule shown here, `O=C(O)CCNC(=O)c1ccc(CN(c2ccc3c(c2)CCCC3)c2nc(-c3ccc(Cl)c(Cl)c3)cs2)cc1` , give the reported pIC50.
Reply: 5.48

---

Catalogue of compounds with associated Cmax
Assay protocol: Cmax in fasted Sprague-Dawley rat at 1.66mg/kg, iv and 3 mg/kg, po
Format: ADME, organism-based
Parameters: dose 3 mg/kg, route oral
Condition info: in vivo

* O=C(O)CCNC(=O)c1ccc(N(Cc2ccc3c(c2)Cc2ccccc2-3)c2nc(-c3ccc(OC(F)(F)F)cc3)cs2)cc1 | 82 ng/mL

Okay, now this compound:
Ask: For the compound shown here, `O=C(O)CCNC(=O)c1ccc(N(Cc2ccc3c(c2)Cc2ccccc2-3)c2nc(-c3ccc(C(F)(F)F)cc3)cs2)cc1` , give the reported Cmax.
Reply: 93 ng/mL

---

Assay protocol: Tmax in fasted Sprague-Dawley rat at 1.66 mg/kg, iv and 3.34 mg/kg, po by HTLC-MS/MS analysis
Type: ADME, organism-based
Condition info: in vivo
Endpoint name: Tmax (h)
Unit h implied. Number only.

• O=C(O)CCNC(=O)c1ccc(CN(c2ccc3c(c2)CCC3)c2nc(-c3ccc(C(F)(F)F)cc3)cs2)cc1 = 1

Ask: For the compound shown here, `O=C(O)CCNC(=O)c1ccc(CN(c2ccc3c(c2)CCC3)c2nc(-c3ccc(OC(F)(F)F)cc3)cs2)cc1` , give the reported Tmax.
Reply: 4

---

Measured on: Glucagon receptor (Rattus norvegicus, UniProt P30082)
Sequence (P30082 whole entry): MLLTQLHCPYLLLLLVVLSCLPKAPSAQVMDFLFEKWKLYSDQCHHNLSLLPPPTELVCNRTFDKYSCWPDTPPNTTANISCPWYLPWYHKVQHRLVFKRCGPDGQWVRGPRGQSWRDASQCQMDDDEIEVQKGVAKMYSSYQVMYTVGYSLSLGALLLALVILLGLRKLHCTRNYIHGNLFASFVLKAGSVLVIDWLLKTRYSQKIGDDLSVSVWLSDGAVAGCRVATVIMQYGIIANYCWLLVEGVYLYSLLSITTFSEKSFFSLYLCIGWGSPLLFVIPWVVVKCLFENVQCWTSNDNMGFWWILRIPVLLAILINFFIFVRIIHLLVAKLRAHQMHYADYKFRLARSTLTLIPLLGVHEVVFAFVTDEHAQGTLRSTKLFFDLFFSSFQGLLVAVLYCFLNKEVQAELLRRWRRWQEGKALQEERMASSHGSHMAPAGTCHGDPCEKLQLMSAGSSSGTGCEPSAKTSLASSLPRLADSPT
Assay protocol: Binding affinity to glucagon receptor in rat liver membrane by membrane filter assay
Assay type: cell membranes
Endpoint name: pIC50
The read-out pIC50 is expressed as -log10 of concentration in moles per litre.

Ask: For the compound shown here, `O=C(O)CCNC(=O)c1ccc(CN(c2ccc3c(c2)CCC3)c2nc(-c3ccc(OC(F)(F)F)cc3)cs2)cc1` , give the reported pIC50.
Reply: 5.36

Ask: For the compound shown here, `O=C(O)CCNC(=O)c1ccc(CN(c2ccc(C(F)(F)F)cc2)c2nc(-c3ccc(Cl)cc3)cs2)cc1` , give the reported pIC50.
Reply: 5.57

Ask: For the compound shown here, `O=C(O)CCNC(=O)c1ccc(CN(c2ccc(Cl)cc2)c2nc(-c3ccc(C(F)(F)F)cc3)cs2)cc1` , give the reported pIC50.
Reply: 5.85

---

Assay protocol: Oral bioavailability in fasted Sprague-Dawley rat at 3.20 mg/kg by HTLC-MS/MS analysis
Type: ADME, organism-based
Condition info: in vivo, 3.2 mg/kg
Endpoint name: bioavailability (%)
Unit % implied. Number only.

Ask: For the compound shown here, `O=C(O)CCNC(=O)c1ccc(CN(c2ccc(Cl)cc2)c2nc(-c3ccc(OC(F)(F)F)cc3)cs2)cc1` , give the reported bioavailability.
Reply: 16

---

Catalogue of molecules with associated half-life
Assay protocol: Half life in fasted Sprague-Dawley rat plasma at 1.6 mg/kg, iv by HTLC-MS/MS analysis
Format: ADME, organism-based
Design: dose 1.6 mg/kg, route intravenous
Unit h implied. Number only.

Ask: For the molecule shown here, `O=C(O)CCNC(=O)c1ccc(CN(c2ccc3c(c2)CCCC3)c2nc(-c3ccc(Cl)c(Cl)c3)cs2)cc1` , give the reported half-life.
Reply: 1.73

Ask: For the molecule shown here, `CC(C)(C)c1ccc(-c2csc(N(Cc3ccc(C(=O)NCCC(=O)O)cc3)c3ccc(C4=CCCCC4)cc3)n2)cc1` , give the reported half-life.
Reply: 0.5

---

Assay protocol: Clearance in fasted Sprague-Dawley rat at 1.62 mg/kg, iv and 3.25 mg/kg, po by HTLC-MS/MS analysis
Assay type: ADME, organism-based
Condition info: in vivo
Endpoint name: clearance (mL/min/kg)
Unit mL/min/kg implied. Number only.

Ask: For the compound shown here, `O=C(O)CCNC(=O)c1ccc(CN(c2ccc3c(c2)CCCC3)c2nc(-c3ccc(C(F)(F)F)cc3)cs2)cc1` , give the reported clearance.
Reply: 7

---

Measured on: Glucagon receptor (Homo sapiens, UniProt P47871)
Sequence (P47871 whole entry): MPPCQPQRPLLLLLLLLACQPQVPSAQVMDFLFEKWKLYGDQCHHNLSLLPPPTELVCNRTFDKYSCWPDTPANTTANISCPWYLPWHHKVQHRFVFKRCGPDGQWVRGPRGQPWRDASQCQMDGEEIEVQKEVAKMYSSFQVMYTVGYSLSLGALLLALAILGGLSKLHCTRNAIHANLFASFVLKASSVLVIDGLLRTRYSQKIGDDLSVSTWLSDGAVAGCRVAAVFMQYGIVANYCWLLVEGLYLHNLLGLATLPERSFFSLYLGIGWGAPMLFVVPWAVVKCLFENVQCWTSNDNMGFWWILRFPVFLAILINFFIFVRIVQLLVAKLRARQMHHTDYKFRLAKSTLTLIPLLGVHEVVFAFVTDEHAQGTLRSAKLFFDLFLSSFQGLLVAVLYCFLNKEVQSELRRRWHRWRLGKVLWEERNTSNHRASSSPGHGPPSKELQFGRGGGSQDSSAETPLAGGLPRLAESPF
Assay protocol: Displacement of [125I]porcine glucagon from human recombinant glucagon receptor expressed in BHK cells by scintillation proximity assay
Type: cell-based
pIC50: −log10 of the molar value.
Decide using pIC50: a value greater than or equal to 7 is T, a smaller one is F.

Example results:
- O=C(O)CCNC(=O)c1ccc(CN(c2ccc(SC(F)(F)F)cc2)c2nc(-c3ccc(C(F)(F)F)cc3)cs2)cc1: T
- O=C(O)CCNC(=O)c1ccc(CN(c2ccc(C3=CCCCC3)cc2)c2nc(-c3ccc(OC(F)(F)F)cc3)cs2)cc1: T
- O=C(O)CCNC(=O)c1ccc(CN(c2nc(-c3ccc(Cl)c(Cl)c3)cs2)C2CCCc3ccccc32)cc1 (stereo not drawn): F

Ask: Decide: pIC50 of `O=C(O)CCNC(=O)c1ccc(CN(c2ccc(C3=CCCCC3)cc2)c2nc(-c3ccc(C(F)(F)F)cc3)cs2)cc1` >= 7?
Reply: T

---

Measured on: Glucagon receptor (Homo sapiens)
Assay protocol: Displacement of [125I]porcine glucagon from human recombinant glucagon receptor expressed in BHK cells by scintillation proximity assay
Type: cell-based
Catalogue of molecules with associated pIC50
The read-out pIC50 is expressed as -log10 of concentration in moles per litre.

- CC(C)(C)c1ccc(-c2csc(N(Cc3ccc(C(=O)NCCC(=O)O)cc3)c3ccc(C4=CCCCC4)cc3)n2)cc1: 6.93

Ask: For the molecule shown here, `O=C(O)CCNC(=O)c1ccc(CN(c2ccc3c(c2)CCCC3)c2nc(-c3ccc(C(F)(F)F)cc3)cs2)cc1` , give the reported pIC50.
Reply: 7.11

Ask: For the molecule shown here, `O=C(O)CCNC(=O)c1ccc(CN(c2ccc(Cl)cc2)c2nc(-c3ccc(C(F)(F)F)cc3)cs2)cc1` , give the reported pIC50.
Reply: 7.12

Ask: For the molecule shown here, `O=C(NC[C@@H](O)C(=O)O)c1ccc(CN(c2ccc3c(c2)CCC3)c2nc(-c3ccc(C(F)(F)F)cc3)cs2)cc1` , give the reported pIC50.
Reply: 6.58

Ask: For the molecule shown here, `O=C(O)CCNC(=O)c1ccc(N(Cc2ccc3c(c2)Cc2ccccc2-3)c2nc(-c3ccc(OC(F)(F)F)cc3)cs2)cc1` , give the reported pIC50.
Reply: 7.09

Ask: For the molecule shown here, `O=C(O)CCNC(=O)c1ccc(CN(c2ccc(C(F)(F)F)cc2)c2nc(-c3ccc(Cl)cc3)cs2)cc1` , give the reported pIC50.
Reply: 7.04

Ask: For the molecule shown here, `O=C(O)CCNC(=O)c1ccc(CN(c2ccc(Cl)cc2)c2nc(-c3ccc(OC(F)(F)F)cc3)cs2)cc1` , give the reported pIC50.
Reply: 7.09

Ask: For the molecule shown here, `O=C(NC[C@@H](O)C(=O)O)c1ccc(CN(c2ccc3c(c2)CCC3)c2nc(-c3ccc(OC(F)(F)F)cc3)cs2)cc1` , give the reported pIC50.
Reply: 6.65
